All figures here come from the RNAGym collection of RNA variant scans (doi:10.7554/elife.90254).

B1: LINE1-full (parent)
chain: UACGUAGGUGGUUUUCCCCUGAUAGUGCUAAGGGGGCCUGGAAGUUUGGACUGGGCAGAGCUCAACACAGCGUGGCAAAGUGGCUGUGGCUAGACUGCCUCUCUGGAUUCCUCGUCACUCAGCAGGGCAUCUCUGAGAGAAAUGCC

Variants of: B1
assay notes: self-cleavage, relative activity (ratio to wild type); higher = more cleavage; in vitro, sequencing; the parent is a self-cleaving ribozyme
Each entry belongs to exactly one class, chosen by where its self-cleavage falls: low: < 0.2; mid: ≥ 0.2 and < 1; high: ≥ 1

Example cases with answers are listed next.
{"columns": ["variant code", "discrete label"],
 "data": [
  ["A65U A78C", "mid"],
  ["A94G C146U", "mid"],
  ["A117U G122U", "high"],
  ["U13C C51U", "mid"],
  ["U102A U115A", "high"],
  ["A30U A107G", "high"]
]}

q: Exam item: assign U1C U119C to the correct category.
a: mid

q: Bin? A79G G88A
a: low

q: Band for U12C A67G ?
a: mid
